- System: Escherichia coli TOP10
- test.method.notes: shrunken log2 fold change of peptide-encoding DNA abundance (4.5 h post-induction vs induction); higher = less antimicrobial activity (less host growth inhibition)
- test.conditions: time post-induction: 4.5 h; library: site-saturation at positions 5, 18, 19, 20
Rule: shrunken log2 fold change under -0.1 gives n, otherwise y.

Asked: Reported shrunken log2 fold change reaches at least -0.1 for RRIRWRPPRLPRPRPRPQMGPRP ?
Given back: n

Asked: Hi team, for RRIRWRPPRLPRPRPRPYNAPRP , is the recorded shrunken log2 fold change at or above -0.1?
Given back: n

Asked: Is shrunken log2 fold change at least -0.1? Consider RRIRHRPPRLPRPRPRPSNDPRP
Given back: n

Asked: Please tell me: is the sequence RRIRIRPPRLPRPRPRPSHEPRP at or over -0.1 in terms of shrunken log2 fold change?
Given back: n

Asked: Does the reported shrunken log2 fold change for RRIRFRPPRLPRPRPRPWTMPRP fall at or above the -0.1 mark?
Given back: y

Asked: Item RRIRHRPPRLPRPRPRPKWHPRP with shrunken log2 fold change of -0.1 or above?
Given back: n

Asked: Evaluate RRIRPRPPRLPRPRPRPPNAPRP : shrunken log2 fold change at minimum -0.1?
Given back: y

Asked: # check: shrunken log2 fold change of RRIRKRPPRLPRPRPRPHFNPRP is greater than or equal to -0.1
Given back: y

Asked: Exam item: decide whether the reported shrunken log2 fold change for RRIRFRPPRLPRPRPRPRFDPRP is at least -0.1.
Given back: n

Asked: Threshold query (shrunken log2 fold change >= -0.1) on RRIRIRPPRLPRPRPRPFSMPRP
Given back: y

Asked: Tell me whether shrunken log2 fold change is at least -0.1 here: RRIRLRPPRLPRPRPRPGRPPRP
Given back: y

Asked: # check: shrunken log2 fold change of RRIRWRPPRLPRPRPRPICDPRP is greater than or equal to -0.1
Given back: y

Asked: Given RRIRTRPPRLPRPRPRPRNYPRP , state whether its shrunken log2 fold change is at least -0.1.
Given back: y

Asked: Has RRIRRRPPRLPRPRPRPMQCPRP a recorded shrunken log2 fold change greater than or equal to -0.1?
Given back: y

Asked: Record RRIRQRPPRLPRPRPRPEYVPRP ; criterion: shrunken log2 fold change no lower than -0.1. Met?
Given back: y

###

Would you kindly list shrunken log2 fold change for each of these sequences?
- Test system: Escherichia coli TOP10;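 note: peptides expressed intracellularly from a pBAD plasmid library in pooled LB shake-flask culture, induced with 0.3% L-arabinose, DNA abundance read by NGS, three biological replicates, DESeq2 with apeglm shrinkage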
- test.method.notes: shrunken log2 fold change of peptide-encoding DNA abundance (4.5 h post-induction vs induction); higher = less antimicrobial activity (less host growth inhibition)
- test.conditions: time post-induction: 4.5 h; library: site-saturation at positions 5, 18, 19, 20
The reply should be a number, written without any unit.

Form: sequence = RRIRGRPPRLPRPRPRPALCPRP ; shrunken log2 fold change = 0.925

// sample RRIRWRPPRLPRPRPRPPQNPRP , its shrunken log2 fold change was 0.91

Lab note: measured shrunken log2 fold change of RRIRFRPPRLPRPRPRPKMLPRP was -0.0622

What the record says about RRIRRRPPRLPRPRPRPCAHPRP : shrunken log2 fold change is 0.067

RRIRFRPPRLPRPRPRPQHTPRP has a reported shrunken log2 fold change of -0.164

Per the record, RRIRARPPRLPRPRPRPHQRPRP has shrunken log2 fold change of 0.0964

Reported shrunken log2 fold change of RRIRGRPPRLPRPRPRPDRRPRP : -0.12

Looking up RRIRLRPPRLPRPRPRPIWPPRP , I found its shrunken log2 fold change recorded as 0.356

Data point: RRIRRRPPRLPRPRPRPKYPPRP ; shrunken log2 fold change = -0.0539

Quick note, shrunken log2 fold change for RRIRFRPPRLPRPRPRPQPSPRP landed at 0.279

Reported shrunken log2 fold change for RRIRWRPPRLPRPRPRPGELPRP was 0.532

So, RRIRSRPPRLPRPRPRPFRCPRP ? Its shrunken log2 fold change was -0.148

In plain terms, RRIRTRPPRLPRPRPRPIKSPRP has a documented shrunken log2 fold change of -0.61

Item: RRIRVRPPRLPRPRPRPERWPRP | shrunken log2 fold change: 0.615

Value of shrunken log2 fold change reported for the sequence RRIRGRPPRLPRPRPRPIWLPRP is 0.159

Short answer for RRIRYRPPRLPRPRPRPWIVPRP : shrunken log2 fold change was -0.219

Field shrunken log2 fold change (entry RRIRERPPRLPRPRPRPYCHPRP ) reads -0.467

Just so you know, measured shrunken log2 fold change for RRIRERPPRLPRPRPRPEVWPRP came out at 0.4

RRIRIRPPRLPRPRPRPLAKPRP has a reported shrunken log2 fold change of -0.346

Summary for this sequence, RRIRIRPPRLPRPRPRPLRPPRP : shrunken log2 fold change is 0.583

Record summary for RRIRHRPPRLPRPRPRPPYQPRP : reported shrunken log2 fold change = -0.028

Looking up RRIRERPPRLPRPRPRPVSNPRP , I see its shrunken log2 fold change listed as -1.12

Per the records, this sequence ( RRIRQRPPRLPRPRPRPPCGPRP ) has shrunken log2 fold change equal to 0.184

shrunken log2 fold change reading for RRIRNRPPRLPRPRPRPNWHPRP : -0.111

Record RRIRSRPPRLPRPRPRPDGVPRP , field shrunken log2 fold change: -0.115

Measured shrunken log2 fold change of RRIRKRPPRLPRPRPRPDDAPRP : 1.47

shrunken log2 fold change measured on RRIRPRPPRLPRPRPRPQMLPRP = 0.0602

Record RRIRHRPPRLPRPRPRPQWWPRP , field shrunken log2 fold change: -0.0314

Reported shrunken log2 fold change for RRIRSRPPRLPRPRPRPMQKPRP was -0.0221

Value of shrunken log2 fold change reported for the sequence RRIRARPPRLPRPRPRPRHDPRP is 0.128

Query RRIRERPPRLPRPRPRPFDVPRP yields shrunken log2 fold change of -0.0685

Lab note: RRIRLRPPRLPRPRPRPYTFPRP gave shrunken log2 fold change of -0.00482

Data point: RRIRQRPPRLPRPRPRPPAKPRP ; shrunken log2 fold change = 0.358

Recorded shrunken log2 fold change (sequence RRIRHRPPRLPRPRPRPPLVPRP ): 0.0953

shrunken log2 fold change measured on RRIRHRPPRLPRPRPRPVACPRP = 0.00664

Just so you know, measured shrunken log2 fold change for RRIRGRPPRLPRPRPRPRNDPRP came out at 0.113

Entry RRIRTRPPRLPRPRPRPLYPPRP ; shrunken log2 fold change = -0.154

So for RRIRVRPPRLPRPRPRPNATPRP , the logged shrunken log2 fold change turned out to be 0.172

Just so you know, measured shrunken log2 fold change for RRIRPRPPRLPRPRPRPACKPRP came out at 0.0686

The reported shrunken log2 fold change of the sequence RRIRCRPPRLPRPRPRPIKAPRP was 0.0144

Record RRIRLRPPRLPRPRPRPAHWPRP , field shrunken log2 fold change: 0.608

Lab book: shrunken log2 fold change of RRIRKRPPRLPRPRPRPCPEPRP noted as 0.196

shrunken log2 fold change reported for this sequence RRIRLRPPRLPRPRPRPTMPPRP : -0.0783

The sequence RRIRMRPPRLPRPRPRPTRRPRP showed shrunken log2 fold change equal to 1.14

Lookup result for RRIRNRPPRLPRPRPRPSQCPRP ; measured shrunken log2 fold change: -0.13

For record RRIRVRPPRLPRPRPRPDDYPRP the listed shrunken log2 fold change is -0.272

The recorded shrunken log2 fold change for entry RRIRVRPPRLPRPRPRPPYPPRP equals 0.0226

The sequence RRIRCRPPRLPRPRPRPRQVPRP showed shrunken log2 fold change equal to 0.184

Value of shrunken log2 fold change reported for the sequence RRIRGRPPRLPRPRPRPICCPRP is 0.8

Measured shrunken log2 fold change, RRIRRRPPRLPRPRPRPCADPRP : 0.0637

For RRIRVRPPRLPRPRPRPDFHPRP the sequence record lists shrunken log2 fold change as -0.208

Recorded result, RRIRGRPPRLPRPRPRPYQDPRP , shrunken log2 fold change: 0.0178

Entry RRIRWRPPRLPRPRPRPTNQPRP — recorded shrunken log2 fold change = 0.018

Sure, the documented shrunken log2 fold change for RRIRARPPRLPRPRPRPCDMPRP is 0.208

Recorded result, RRIRYRPPRLPRPRPRPVLKPRP , shrunken log2 fold change: -0.122

For RRIRCRPPRLPRPRPRPRLYPRP the sequence record lists shrunken log2 fold change as -0.307

GET /value?item= RRIRSRPPRLPRPRPRPYECPRP &field=shrunken log2 fold change returns -0.356

// shrunken log2 fold change lookup, sequence = RRIRCRPPRLPRPRPRPKKYPRP , result: -0.485

Lab note: measured shrunken log2 fold change of RRIRRRPPRLPRPRPRPCLSPRP was -0.114

RRIRRRPPRLPRPRPRPKMQPRP yielded shrunken log2 fold change of 0.336

The reported shrunken log2 fold change of the sequence RRIRVRPPRLPRPRPRPYQRPRP was -0.0149

Briefly, shrunken log2 fold change measured for RRIRLRPPRLPRPRPRPVRCPRP : 0.0127

RRIRGRPPRLPRPRPRPLAFPRP has a reported shrunken log2 fold change of 0.487
